# Test system: HT-1197 cells
# procedure.details: Cell-based assay: anti-proliferative activity, Cell Counting Kit-8, 72 hours (HT-1197, negative control without MELK expression)
# measurement.context: Homo sapiens, HT1197, 72 h, HT1197 cells (negative control), 72 hours
Where a name gives a salt, the structure may show the parent alone.
// values below are reported IC50

>  <compound>
CCCC(=O)c1cnc2ccc(-c3cc(F)c(O)c(Cl)c3)cc2c1Nc1ccc(CN(C)C)cc1

>  <u>
µM

>  <IC50>
0.94

$$$$
>  <compound>
O=C(c1cnc2cc(F)c(-c3cc(Cl)c(O)c(Cl)c3)cc2c1Nc1ccc(N2CCNCC2)nc1)C1CC1

>  <u>
µM

>  <IC50>
3.2

$$$$
>  <compound>
CN[C@H]1CC[C@H](Nc2c(C(=O)C3CC3)cnc3ccc(-c4cc(F)c(O)c(Cl)c4)cc23)CC1

>  <u>
µM

>  <IC50>
1.3

$$$$
>  <compound>
CN1CCN(C[C@H]2CC[C@H](Nc3c(C(=O)C4CC4)cnc4ccc(-c5cc(Cl)c(O)c(Cl)c5)cc34)CC2)CC1

>  <u>
µM

>  <IC50>
2.3

$$$$
>  <compound>
CC(=O)c1cnc2ccc(-c3cc(Cl)c(O)c(Cl)c3)cc2c1Nc1ccc(S(=O)(=O)N2CCN(C)CC2)cc1 [Example 887, hydrochloride]

>  <u>
µM

>  <IC50>
100

$$$$
>  <compound>
CN1CCC(n2cc(Nc3c(C(=O)C4CC4)cnc4ccc(-c5cc(Cl)c(O)c(Cl)c5)cc34)cn2)CC1

>  <u>
µM

>  <IC50>
4.3

$$$$
>  <compound>
CC(=O)c1cnc2cc(C)c(-c3cc(Cl)c(O)c(Cl)c3)cc2c1N[C@H]1CC[C@H](CN2CCC(N)C2)CC1 (stereo partly shown) [Example 872, hydrochloride]

>  <u>
µM

>  <IC50>
100

$$$$

---

# Tested on: T47D cells
# procedure.details: Cell-based assay: anti-proliferative activity, Cell Counting Kit-8, 72 hours (T47D)
# measurement.context: Homo sapiens, T47D, 72 h
Structures can show the parent of a compound that is named as a salt.
Please note: IC50 exactly at 0.1 µM is not met. Only values below 0.1 µM get met.

>  <molecule>
CN(C)Cc1ccc(Nc2c(C(=O)C3CC3)cnc3c(F)cc(-c4cc(Cl)c(O)c(Cl)c4)cc23)cc1

>  <assigned.class>
not met

$$$$
>  <molecule>
CN(C)C1CCN(Cc2ccc(Nc3c(C(=O)C4CC4)cnc4ccc(-c5cc(Cl)c(O)c(Cl)c5)cc34)cc2)C1 (stereo not shown)

>  <assigned.class>
not met

$$$$
>  <molecule>
CC(=O)c1cnc2ccc(-c3cc(F)c(O)c(Cl)c3)cc2c1Nc1ccc(OCCN(C)C)nc1 [Example 848, hydrochloride]

>  <assigned.class>
not met

$$$$
>  <molecule>
CCCC(=O)c1cnc2ccc(-c3cnc(C#N)nc3)cc2c1Nc1ccc(CN(C)C)cc1

>  <assigned.class>
not met

$$$$
>  <molecule>
COc1cc(-c2ccc3ncc(C(C)=O)c(Nc4ccc(C(N)=O)cc4)c3c2)cc(Cl)c1O

>  <assigned.class>
not met

$$$$
>  <molecule>
NC1CCN(c2ccc(Nc3c(C(=O)C4CC4)cnc4ccc(-c5cc(Cl)c(O)c(Cl)c5)cc34)cn2)CC1

>  <assigned.class>
met

$$$$
>  <molecule>
CC(=O)c1cnc2ccc(-c3cc(Cl)c(O)c(Cl)c3)cc2c1N[C@H]1CC[C@H](CN2CCCC(N)C2)CC1 (stereo partly shown)

>  <assigned.class>
met

$$$$

---

// values below are reported IC50
# tested.on: MELK (Homo sapiens, UniProt Q14680)
# Sequence (Q14680 whole entry, looked up): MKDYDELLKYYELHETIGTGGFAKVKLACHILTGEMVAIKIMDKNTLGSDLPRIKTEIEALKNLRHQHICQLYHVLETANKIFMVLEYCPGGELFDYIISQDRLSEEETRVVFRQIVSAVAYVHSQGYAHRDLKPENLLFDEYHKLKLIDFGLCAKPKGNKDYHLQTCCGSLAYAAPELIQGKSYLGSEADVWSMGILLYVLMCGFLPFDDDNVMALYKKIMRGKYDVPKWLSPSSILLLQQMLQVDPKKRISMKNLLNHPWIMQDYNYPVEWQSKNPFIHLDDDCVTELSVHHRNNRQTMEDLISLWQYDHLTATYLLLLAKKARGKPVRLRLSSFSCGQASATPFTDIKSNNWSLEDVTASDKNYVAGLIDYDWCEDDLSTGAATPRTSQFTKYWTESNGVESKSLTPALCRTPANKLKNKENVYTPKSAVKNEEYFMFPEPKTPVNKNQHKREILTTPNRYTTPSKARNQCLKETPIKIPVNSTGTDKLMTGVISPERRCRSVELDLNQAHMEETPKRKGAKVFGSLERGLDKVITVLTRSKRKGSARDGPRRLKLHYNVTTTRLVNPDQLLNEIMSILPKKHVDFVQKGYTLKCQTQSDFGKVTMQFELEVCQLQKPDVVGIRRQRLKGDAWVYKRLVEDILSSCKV
# procedure.details: Kinase assay: MELK activity, phosphorylation of FITC-labeled histone H3 peptide measured by IMAP fluorescence polarization
# Assay type: biochemical
# measurement.context: MELK kinase assay, IMAP fluorescence polarization, 50 micro-M ATP; read-out: IC50 (μM) (kinase assay)
Counter-ions that a name gives are not always drawn.

>  <compound>
CC(=O)c1cnc2ccc(-c3cc(F)c(O)c(Cl)c3)cc2c1NC1CCN(CCN(C)C)CC1

>  <tested.on>
MELK (Homo sapiens, UniProt Q14680)

>  <IC50, µM>
0.0053

$$$$
>  <compound>
CC(=O)c1cnc2ccc(-c3ccc4nc[nH]c4c3)cc2c1Nc1ccc(N2CCN(C)CC2)nc1 [Example 901, hydrochloride]

>  <tested.on>
MELK (Homo sapiens, UniProt Q14680)

>  <IC50, µM>
0.1

$$$$
>  <compound>
CC(=O)c1cnc2ccc(-c3cc(Cl)c(O)c(Cl)c3)cc2c1Nc1ccc(N2CCC(N(C)C)C2)nc1 (stereo not shown)

>  <tested.on>
MELK (Homo sapiens, UniProt Q14680)

>  <IC50, µM>
0.0032

$$$$
>  <compound>
CCN(C)C[C@H]1CC[C@H](Nc2c(C(C)=O)cnc3ccc(-c4cc(F)c(O)c(Cl)c4)cc23)CC1

>  <tested.on>
MELK (Homo sapiens, UniProt Q14680)

>  <IC50, µM>
0.00204

$$$$

---

# Test system: 22Rv1 cells
# procedure.details: Cell-based assay: anti-proliferative activity, Cell Counting Kit-8, 72 hours (22Rv1)
# measurement.context: Homo sapiens
Where a name gives a salt, the structure may show the parent alone.
// values below are reported IC50
quantity.kind: IC50 (µM)

>  <molecule>
CC(=O)c1cnc2ccc(-c3cc(F)c(O)c(Cl)c3)cc2c1N[C@H]1CC[C@H](C(=O)NCCN(C)C)CC1 [Example 893, hydrochloride]

>  <observed>
1.6

$$$$
>  <molecule>
CC(=O)c1cnc2ccc(-c3ccc4[nH]ncc4c3)cc2c1N[C@H]1CC[C@H](CN(C)C)CC1 [Example 910, hydrochloride]

>  <observed>
3.4

$$$$
>  <molecule>
CC(=O)c1cnc2ccc(-c3cc(Cl)c(O)c(Cl)c3)cc2c1N[C@H]1CC[C@H](NC(=O)C(N)C(C)C)CC1 (stereo partly shown)

>  <observed>
0.099

$$$$
>  <molecule>
CC(=O)c1cnc2ccc(-c3cc(Cl)c(O)c(Cl)c3)cc2c1Nc1cnc(C)c(CCN2CCCC2)c1

>  <observed>
0.82

$$$$
>  <molecule>
CC(=O)c1cnc2ccc(-c3cc(F)c(O)c(Cl)c3)cc2c1Nc1cnc(C)c(CCN2CCCC2)c1

>  <observed>
4.6

$$$$
>  <molecule>
CS(=O)(=O)c1cnc2ccc(-c3cc(Cl)c(O)c(Cl)c3)cc2c1Nc1ccc(N2CCCC(N)C2)nc1 (stereo not shown)

>  <observed>
0.58

$$$$
>  <molecule>
CC(=O)c1cnc2ccc(-c3cc(Cl)c(O)c(Cl)c3)cc2c1N[C@H]1CC[C@H](C(=O)N(C)C)CC1 [Example 865, hydrochloride]

>  <observed>
1.5

$$$$

---

# tested.on: MELK (Homo sapiens)
# procedure.details: Kinase assay: MELK activity, phosphorylation of FITC-labeled histone H3 peptide measured by IMAP fluorescence polarization
# Format: biochemical
# measurement.context: 50 micro-M ATP, FITC-labeled histone H3 peptide substrate, IMAP fluorescence polarization; read-out: IC50 (μM) (kinase assay)
Please note: IC50 exactly at 0.03 µM is 0 (no). Only values below 0.03 µM get 1 (yes).

>  <compound>
CN(C)CC1CCN(c2c(C(=O)C3CCCC3)cnc3ccc(-c4ccc(O)c(Cl)c4)cc23)CC1 [Example 389]

>  <assigned.class>
0 (no)

$$$$
>  <compound>
CN(C)C[C@H]1CC[C@H](Nc2c(S(C)(=O)=O)cnc3ccc(-c4cc(Cl)c(O)c(Cl)c4)cc23)CC1 [Example 420]

>  <assigned.class>
1 (yes)

$$$$
>  <compound>
COc1cc(-c2ccc3ncc(C(=O)C4CC4)c(NC4CCN(C)CC4)c3c2)ccc1O [Example 177]

>  <assigned.class>
1 (yes)

$$$$
>  <compound>
N#Cc1cnc2ccc(-c3cc(F)c(O)c(Cl)c3)cc2c1N1CCC(CN2CCCC2)CC1 [Example 434]

>  <assigned.class>
0 (no)

$$$$
>  <compound>
COc1cc(-c2ccc3ncc(C(=O)C4CC4)c(N4CCC(CN5CCCC5)CC4)c3c2)cc(Cl)c1O [Example 280]

>  <assigned.class>
1 (yes)

$$$$
>  <compound>
O=C(c1cnc2ccc(-c3ccc(O)c(Cl)c3)cc2c1N1CCN(CCN2CCCC2)CC1)C1CC1 [Example 403]

>  <assigned.class>
1 (yes)

$$$$
>  <compound>
N[C@H]1CC[C@H](Nc2c(C(=O)C3CC3)cnc3ccc(-c4ccc(O)cc4)cc23)CC1 [Example 55]

>  <assigned.class>
1 (yes)

$$$$

---

# tested.on: MELK (Homo sapiens, UniProt Q14680)
# procedure.details: Kinase assay: MELK activity, phosphorylation of FITC-labeled histone H3 peptide measured by IMAP fluorescence polarization
# Format: biochemical
# measurement.context: read-out: IC50 (μM) (kinase assay)
// values below are reported IC50

>  <compound>
CC(=O)c1cnc2ccc(-c3cc(Cl)c(O)c(Cl)c3)cc2c1N[C@H]1CC[C@H](CN2CCC(O)C2)CC1 (some centres unmarked) [Example 753]

>  <IC50>
0.0015 µM

$$$$
>  <compound>
CC(=O)c1cnc2ccc(-c3cc(Cl)c(O)c(Cl)c3)cc2c1N[C@@H]1CCC[C@@H](CN(C)C)C1 [Example 750]

>  <IC50>
0.0023 µM

$$$$
>  <compound>
COc1cc(-c2ccc3ncc(C(=O)C4CC4)c(Nc4cccc(CCN(C)C)c4)c3c2)cc(Cl)c1O [Example 692]

>  <IC50>
0.0056 µM

$$$$
>  <compound>
COc1cc(-c2ccc3ncc(C(=O)C4CC4)c(Nc4cccc(CN(C)C)c4)c3c2)cc(Cl)c1O [Example 622]

>  <IC50>
0.0037 µM

$$$$
>  <compound>
O=C(c1cnc2ccc(-c3cc(Cl)c(O)c(Cl)c3)cc2c1Nc1cnc(N2CCNCC2)nc1)C1CC1 [Example 497]

>  <IC50>
0.0021 µM

$$$$
>  <compound>
O=C(c1cnc2ccc(-c3cc(Cl)c(O)c(Cl)c3)cc2c1-c1ccc(OCCN2CCCC2)cc1)C1CC1 [Example 485]

>  <IC50>
0.0056 µM

$$$$
>  <compound>
NC[C@H]1CC[C@@H](Nc2c(C(=O)C3CC3)cnc3ccc(-c4cc(F)c(O)c(Cl)c4)cc23)CC1 [Example 515]

>  <IC50>
0.0034 µM

$$$$
>  <compound>
COc1cc(-c2ccc3ncc(C(=O)C4CC4)c(-c4ccc(C(=O)N5CCN(C)CC5)cc4)c3c2)cc(Cl)c1O [Example 476]

>  <IC50>
0.0081 µM

$$$$
>  <compound>
CCC(=O)c1cnc2ccc(-c3cc(Cl)c(O)c(Cl)c3)cc2c1N[C@H]1CC[C@H](CN(C)C)CC1 [Example 715]

>  <IC50>
0.0015 µM

$$$$
>  <compound>
COC1CCN(C[C@H]2CC[C@H](Nc3c(C(=O)C4CC4)cnc4ccc(-c5cc(Cl)c(O)c(Cl)c5)cc34)CC2)C1 (some centres unmarked) [Example 598]

>  <IC50>
0.0023 µM

$$$$
>  <compound>
CC(=O)c1cnc2ccc(-c3cc(F)c(O)c(Cl)c3)cc2c1Nc1ccc(CN2CCN(C)CC2)cc1 [Example 656]

>  <IC50>
0.033 µM

$$$$
>  <compound>
COc1cc(-c2cc(F)c3ncc(C(=O)C4CC4)c(Nc4ccc(CN(C)C)cc4)c3c2)cc(Cl)c1O [Example 551]

>  <IC50>
1.1 µM

$$$$
>  <compound>
NC1CCN(c2ncc(Nc3c(C(=O)C4CC4)cnc4ccc(-c5cc(Cl)c(O)c(Cl)c5)cc34)cn2)CC1 [Example 566]

>  <IC50>
0.003 µM

$$$$
>  <compound>
C[S+]([O-])c1cnc2ccc(-c3cc(Cl)c(O)c(Cl)c3)cc2c1N[C@H]1CC[C@H](N)CC1 (some centres unmarked) [Example 491]

>  <IC50>
0.0075 µM

$$$$
